pIC50: −log10 of the molar value.
Recorded below: pIC50, system hCA II (Homo sapiens).

Compound: CC(C)OS(=O)(=O)N1C(=O)c2ccccc2C1(O)c1ccccc1 (stereo not drawn)
System: hCA II (Homo sapiens)
pIC50: 7.89

Compound: CCOS(=O)(=O)N1C(=O)c2ccccc2C1(O)c1ccccc1 (stereo not drawn)
System: hCA II (Homo sapiens)
pIC50: 7.54

Compound: CC(C)COS(=O)(=O)N1C(=O)c2ccccc2C1(O)c1ccccc1 (stereo not drawn)
System: hCA II (Homo sapiens)
pIC50: 7.62

Compound: CCCOS(=O)(=O)N1C(=O)c2ccccc2C1(O)c1ccccc1 (stereo not drawn)
System: hCA II (Homo sapiens)
pIC50: 6.64

Compound: O=C1c2ccccc2C(O)(c2ccccc2)N1S(=O)(=O)OC1CCCCC1 (stereo not drawn)
System: hCA II (Homo sapiens)
pIC50: 7.56

Compound: CCCCOS(=O)(=O)N1C(=O)c2ccccc2C1(O)c1ccccc1 (stereo not drawn)
System: hCA II (Homo sapiens)
pIC50: 7.06
